Below, each of the compounds is paired with its reported inhibition value.
- SUBJECT OF TEST: Polyunsaturated fatty acid 5-lipoxygenase (Rattus norvegicus) (UniProt P12527)
- Sequence (P12527 whole entry): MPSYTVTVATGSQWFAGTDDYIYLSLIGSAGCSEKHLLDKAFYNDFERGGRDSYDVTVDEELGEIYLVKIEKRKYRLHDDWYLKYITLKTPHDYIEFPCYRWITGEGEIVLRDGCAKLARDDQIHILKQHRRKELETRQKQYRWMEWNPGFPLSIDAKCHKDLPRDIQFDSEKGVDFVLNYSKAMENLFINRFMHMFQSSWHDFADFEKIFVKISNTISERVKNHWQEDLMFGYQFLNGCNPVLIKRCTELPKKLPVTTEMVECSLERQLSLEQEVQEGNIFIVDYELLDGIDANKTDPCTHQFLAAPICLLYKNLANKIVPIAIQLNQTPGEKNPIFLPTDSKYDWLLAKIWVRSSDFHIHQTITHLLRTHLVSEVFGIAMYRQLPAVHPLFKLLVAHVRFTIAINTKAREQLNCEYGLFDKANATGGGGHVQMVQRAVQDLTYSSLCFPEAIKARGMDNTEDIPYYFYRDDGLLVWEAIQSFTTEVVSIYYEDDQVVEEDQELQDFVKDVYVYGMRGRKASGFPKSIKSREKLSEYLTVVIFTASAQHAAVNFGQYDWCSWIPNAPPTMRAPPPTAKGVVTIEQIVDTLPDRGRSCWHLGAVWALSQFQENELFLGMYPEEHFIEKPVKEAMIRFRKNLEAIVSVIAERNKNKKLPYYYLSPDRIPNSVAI
- EXPERIMENTAL PROTOCOL: Percent inhibition against RBL-1 5-LO in vitro at 300 uM
- Format: cell-based
ENDPOINT: inhibition (%)

1. NC(=O)c1ccc2ccccc2c1 : 9
2. O=C(O)c1ccc2ccccc2c1 : 0
3. CO/C(=N\O)c1ccc2ccccc2c1 : 74
4. NNC(=O)c1ccc2ccccc2c1 : 6
